KIDNEY_R by entry:
- Species on record: Rattus norvegicus
- Protocol Details: Open TG-GATES - Regimen: Daily Repeat
- Type: toxicity, organism-based, Sprague-Dawley
- Design: regimen Daily Repeat, gender Male, age 6 weeks
- Experimental Context: in vivo, po, 0 mg/kg, […], tissue Kidney, route gavage, dose level Control, time 14 day

Compound	KIDNEY_R [g]
CCC1(c2ccccc2)C(=O)NC(=O)NC1=O	1.1
CN(C)CCC=C1c2ccccc2COc2ccccc21 [DOXEPIN]	1.2
OCCOCCN1CCN(C(c2ccccc2)c2ccc(Cl)cc2)CC1 (stereo unspecified) [HYDROXYZINE]	1.3
CC(C)N(CCC(C(N)=O)(c1ccccc1)c1ccccn1)C(C)C (stereo unspecified) [DISOPYRAMIDE]	1.3
CN(C)C(=N)N=C(N)N	1.2
O=NN(CCCl)C(=O)NC1CCCCC1	1.2
CCCCc1oc2ccccc2c1C(=O)c1cc(I)c(OCCN(CC)CC)c(I)c1	1.2
ClC(Cl)(Cl)Cl [CARBON TETRACHLORIDE]	1.1
CCc1oc2ccccc2c1C(=O)c1cc(Br)c(O)c(Br)c1	1.2
CC1=C(CC(=O)O)c2cc(F)ccc2/C1=C\c1ccc([S+](C)[O-])cc1 (stereo unspecified)	1.3
CC[C@H]1[C@@H]2C[C@H]3[C@@H]4N(C)c5ccccc5[C@]45C[C@@H]([C@@H]2[C@H]5O)N3[C@@H]1O	1.3

====

The following compounds are listed with their measured WBC values.
- Species: Rattus norvegicus
- Protocol Details: Open TG-GATES - Regimen: Daily Repeat
- Assay type: toxicity, organism-based, Sprague-Dawley
- Parameters: regimen Daily Repeat, gender Male, age 6 weeks
- Experimental Context: in vivo, po, 0 mg/kg, […], tissue Blood, route gavage, dose level Control, time 14 day

Compound	WBC / x10_2/uL
CC[C@H]1[C@@H]2C[C@H]3[C@@H]4N(C)c5ccccc5[C@]45C[C@@H]([C@@H]2[C@H]5O)N3[C@@H]1O	121.7
O=NN(CCCl)C(=O)NC1CCCCC1	145.5
ClC(Cl)(Cl)Cl [CARBON TETRACHLORIDE]	114.8
CC(C)N(CCC(C(N)=O)(c1ccccc1)c1ccccn1)C(C)C (stereo unspecified) [DISOPYRAMIDE]	124.4
CCCCc1oc2ccccc2c1C(=O)c1cc(I)c(OCCN(CC)CC)c(I)c1	85.2
CCC1(c2ccccc2)C(=O)NC(=O)NC1=O	153.7
CN(C)CCC=C1c2ccccc2COc2ccccc21 [DOXEPIN]	103.9
CC1=C(CC(=O)O)c2cc(F)ccc2/C1=C\c1ccc([S+](C)[O-])cc1 (stereo unspecified)	92.8
CN(C)C(=N)N=C(N)N	104.1
OCCOCCN1CCN(C(c2ccccc2)c2ccc(Cl)cc2)CC1 (stereo unspecified) [HYDROXYZINE]	105.1
CCc1oc2ccccc2c1C(=O)c1cc(Br)c(O)c(Br)c1	138.1

====

Lym listing for selected compounds.
- Species: Rattus norvegicus
- Protocol Details: Open TG-GATES - Regimen: Single
- Type: toxicity, organism-based, Sprague-Dawley
- Design: regimen Single, gender Male, age 6 weeks
- Experimental Context: in vivo, po, 0 mg/kg, 3 h, tissue Blood, route gavage, dose level Control

Compound	Lym [%]
CN(C)C(=N)N=C(N)N	76.8
CN(C)CCC=C1c2ccccc2COc2ccccc21 [DOXEPIN]	77.4
CCc1oc2ccccc2c1C(=O)c1cc(Br)c(O)c(Br)c1	76.4
O=NN(CCCl)C(=O)NC1CCCCC1	82
CCC1(c2ccccc2)C(=O)NC(=O)NC1=O	72.8
